The reported measurements were obtained from the supplement of paper PMC7877785.

experiment.description: self-splicing fitness, log relative to wild type (ln ratio); higher = more splicing; Tetrahymena group I intron in knt gene, E. coli kanamycin selection, DiMSum; sequences stand for … in CUCUCU…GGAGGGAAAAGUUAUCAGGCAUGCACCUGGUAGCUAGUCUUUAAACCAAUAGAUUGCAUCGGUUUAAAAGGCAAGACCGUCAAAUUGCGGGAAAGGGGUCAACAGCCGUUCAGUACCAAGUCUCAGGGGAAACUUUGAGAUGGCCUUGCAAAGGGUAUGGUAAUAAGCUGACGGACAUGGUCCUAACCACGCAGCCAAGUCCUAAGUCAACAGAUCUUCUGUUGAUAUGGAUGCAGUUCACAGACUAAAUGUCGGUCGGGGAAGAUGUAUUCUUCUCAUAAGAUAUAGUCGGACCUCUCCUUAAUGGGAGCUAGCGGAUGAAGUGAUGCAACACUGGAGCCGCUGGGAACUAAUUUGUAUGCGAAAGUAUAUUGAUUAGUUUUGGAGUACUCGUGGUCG;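 further: selection with 25 µg/mL kanamycin versus none on LB agar overnight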
particulars: 30 °C
Assign self-splicing fitness (ln) to each entry below.
Answers are plain numbers.

Solved cases (10 shown):
[
  {
    "biosequence": "CAUAAGCAAUAUUACGGCCC",
    "assay.endpoint": "self-splicing fitness (ln)",
    "reading": -3.92
  },
  {
    "biosequence": "UACGAGCAAUAUUACGAUGG",
    "assay.endpoint": "self-splicing fitness (ln)",
    "reading": -2.85
  },
  {
    "biosequence": "CAGUAGCAAUAUUACGUGUA",
    "assay.endpoint": "self-splicing fitness (ln)",
    "reading": -4.62
  },
  {
    "biosequence": "UCCCAGCAAUAUUACGCAGG",
    "assay.endpoint": "self-splicing fitness (ln)",
    "reading": -3.88
  },
  {
    "biosequence": "CUCGAGCAAUAUUACGAAGU",
    "assay.endpoint": "self-splicing fitness (ln)",
    "reading": -3.64
  },
  {
    "biosequence": "GUAUAGCAAUAUUACGUUCG",
    "assay.endpoint": "self-splicing fitness (ln)",
    "reading": -2.09
  },
  {
    "biosequence": "AAUUAGCAAUAUUACGCGGC",
    "assay.endpoint": "self-splicing fitness (ln)",
    "reading": -2.28
  },
  {
    "biosequence": "CCGGAGCAAUAUUACGACAU",
    "assay.endpoint": "self-splicing fitness (ln)",
    "reading": -3.82
  },
  {
    "biosequence": "CUAAAGCAAUAUUACGGAGG",
    "assay.endpoint": "self-splicing fitness (ln)",
    "reading": -1.82
  },
  {
    "biosequence": "CACGAGCAAUAUUACGAGCG",
    "assay.endpoint": "self-splicing fitness (ln)",
    "reading": -0.857
  }
]

Your task in this section: give self-splicing fitness (ln) for each listed record.
1. GGUGAGCAAUAUUACGAUUU
2. AUUAAGCAAUAUUACGUCUU

-1.35
-0.854

Your task in this section: give self-splicing fitness (ln) for each listed record.
1. GUUAAGCAAUAUUACGAGCG
2. UUAGAGCAAUAUUACGGGUU

1: -1.54; 2: -4.25

----------
Assign self-splicing fitness (ln) to each entry below.
experiment.description: self-splicing fitness, log relative to wild type (ln ratio); higher = more splicing; Tetrahymena group I intron in knt gene, E. coli kanamycin selection, DiMSum; sequences stand for … in CUCUCU…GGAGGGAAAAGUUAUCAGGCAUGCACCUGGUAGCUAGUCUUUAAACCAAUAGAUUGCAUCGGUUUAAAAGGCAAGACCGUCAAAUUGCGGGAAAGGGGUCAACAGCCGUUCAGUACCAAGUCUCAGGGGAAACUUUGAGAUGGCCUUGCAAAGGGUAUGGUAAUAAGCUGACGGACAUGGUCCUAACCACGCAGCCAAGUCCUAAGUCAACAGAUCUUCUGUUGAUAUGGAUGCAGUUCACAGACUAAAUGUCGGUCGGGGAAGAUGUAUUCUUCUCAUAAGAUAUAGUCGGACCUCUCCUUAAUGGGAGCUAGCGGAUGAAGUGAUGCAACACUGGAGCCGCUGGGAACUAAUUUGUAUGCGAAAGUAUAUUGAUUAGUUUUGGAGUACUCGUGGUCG
particulars: 30 °C
One number for each entry.

Solved cases (2 shown):
[
  {
    "biosequence": "UUUUAGCAAUAUUACGUGAC",
    "self-splicing fitness (ln)": -3.41
  },
  {
    "biosequence": "UGGUAGCAAUAUUACGAUUA",
    "self-splicing fitness (ln)": -0.395
  }
]

With those in mind, consider the next sequence.
# self-splicing fitness (ln) lookup, item `ACAAAGCAAUAUUACGGCAG`
-1.1
